Tested on: MDA-MB-435
Valid outcomes are listed here; reply with one: active, inactive

Would you please look over these solved cases?
Ask: GET /call?item= `NC(=O)/C=C/C(=O)c1c(Cl)cccc1Cl` returns the recorded outcome of this test.
Reply: inactive

Ask: Dear colleague, could you share the recorded outcome for `COC(=O)COc1ccccc1/C=C1\N=C(c2ccccc2)N(c2cc(C(F)(F)F)ccc2Cl)C1=O` when you have a moment?
Reply: inactive

Ask: Would you mind telling me which call this test gave `O=C(O)COc1ccc2c(=O)c3sc4c(=O)c5ccccc5c(=O)c4c3c(=O)c2c1` ?
Reply: inactive

Attention now shifts to the item below.
Ask: Check the results log: what was the call for `COc1cc(-c2oc(=O)ccc2C#Cc2ccccn2)cc(OC)c1OC` ?
Reply: active

====

Test system: DMS 114 small cell lung
assay remarks: NCI tumour cell line growth inhibition, 48 h
Recorded TGI values for a group of compounds are listed next.

Ask: Param request: TGI | system DMS 114 small cell lung | item COc1cc2c(cc1OC)C(CC1=C(c3ccccc3)CN3CCc4cc(OC)c(OC)cc4C3C1)NCC2 (stereo not drawn)
Reply: 30.3 µM

Ask: Please look at `O=C1c2cccc3c2C(=O)c2c(cccc21)OCCOCCOCCOCCO3` and tell me its recorded TGI on DMS 114 small cell lung.
Reply: > 100 µM

Ask: Fill in TGI for `N#CN/C(N)=N/CO` tested with DMS 114 small cell lung.
Reply: > 60.9 µM

Ask: Report TGI under test system DMS 114 small cell lung for `O=C(CCN(C(=O)O)S(=O)(=O)c1ccc(NC(=O)c2ccccc2)cc1)Nc1ccccc1` .
Reply: > 68.5 µM

Ask: Identify measured TGI obtained with DMS 114 small cell lung for `O=C(Nc1ccn(CCO)c(=O)n1)c1ccccc1` .
Reply: > 100 µM

***
Ask: Tell me its TGI on DMS 114 small cell lung: `COc1ccc(/C=C2\CCNC2=O)cc1`
Reply: > 100 µM

Ask: Tell me its TGI on DMS 114 small cell lung: OC(CC1SCCCS1)c1ccccc1 (stereo not drawn)
Reply: > 100 µM

Ask: Report its TGI with DMS 114 small cell lung as the test system: Cc1cn2c(=O)c3ncn(C4OC(CO)C(O)C4O)c3n(C)c2n1 (stereo not drawn)
Reply: > 100 µM

Ask: Check DMS 114 small cell lung data and give TGI for `O=c1/c(=C/c2ccccc2[N+](=O)[O-])sc2nnc(-c3ccco3)n12` .
Reply: 40.4 µM

Ask: Please indicate recorded TGI of `CCCCOC(=O)CNC(=O)OC/C=C/C#CC#C/C=C/COC(=O)NCC(=O)OCCCC` measured with DMS 114 small cell lung.
Reply: > 100 µM

Ask: Provide TGI, tested on DMS 114 small cell lung, for CC(C)N(C(=O)C12C3C4C1C1C4(C#N)C3C12C#N)C(C)C (stereo not drawn) .
Reply: > 100 µM

Ask: // fetch TGI; item: CCCC(=O)OCC1OC(n2ccc(N)nc2=O)C(OC(=O)CCC)C1OC(=O)CCC (stereo not drawn) ; system: DMS 114 small cell lung
Reply: > 100 µM

Ask: Check DMS 114 small cell lung data and give TGI for O=C1CCC2(c3ccc(Cl)cc3)Nc3ncccc3N12 (stereo not drawn) .
Reply: > 100 µM

====

Tested on: SK-MEL-2 melanoma
assay remarks: NCI tumour cell line growth inhibition, 48 h; in the data active means GI50 below about 0.43 µM; inactive means the rest
Outcome field: choose from true (1) (active), false (0) (inactive)

Would you please look over these solved cases?
Ask: Dear all, I need the recorded test outcome for `N#Cc1c(N)nc(N2CCOCC2)c(C#N)c1-c1ccncc1` , thank you.
Reply: false (0)

Ask: Test call for this compound, please: `COC(=O)C[C@](O)(CCCC(C)(C)O)C(=O)O[C@@H]1C(OC)=C[C@]23CCCN2CCc2cc4c(cc2[C@H]13)OCO4`
Reply: true (1)

Ask: Entry `COc1cccc(CC(C)=C(c2ccc(OCCN(C)C)cc2)c2ccc(OCCN(C)C)cc2)c1` : call = ?
Reply: false (0)

New cases:
Ask: # lookup: test call for `CC1(C)N=C(N)N=C(N)N1c1ccc(CCCCc2ccc(Cl)cc2S(=O)(=O)F)c(Cl)c1`
Reply: false (0)

Ask: Hi, do you know how `COc1cc(C(=O)N2CCN(C=O)C2=S)cc(OC)c1OC` came out in this test?
Reply: false (0)
